Settings: in water, 288.15 K
PROPERTY NAME: solubility (mole fraction)
Answers are plain numbers.

## Input Given the entry O=C([O-])c1cccc(S(=O)(=O)O)c1.[Na+] , report its measured solubility (mole fraction).
## Output 0.032

====

Details: in water, 318.15 K
PROPERTY NAME: solubility (mole fraction)

## Input # input molecule: O=C([O-])c1cccc(S(=O)(=O)O)c1.[Na+] ; wanted: its solubility (mole fraction)
## Output 0.0584

====

Conditions: in water, 323.15 K
PROPERTY NAME: solubility (mole fraction)

## Input Entry O=C([O-])c1cccc(S(=O)(=O)O)c1.[Na+] has what solubility (mole fraction)?
## Output 0.0687
